Test system: DU-145 prostate
Experiment: NCI tumour cell line growth inhibition, 48 h
Each record here notes measured TGI.
parameter: TGI

* CCOC(=O)C(CCN1CCC2(CC1)C(=O)N(C)CN2c1ccccc1)C(=O)OCC | > 100 µM
* COc1ccc(C2=C3SC=c4ccccc4=C3ON=C2c2ccccc2)cc1 | > 100 µM
* Cc1cc2c(cc1C(=O)c1ccc(N)cc1)OCO2 | > 100 µM
* O=C(N(O)c1ccccc1Cl)C(O)(c1ccccc1)c1ccccc1 | > 100 µM
* CSc1ccccc1C#C/C=C\C#Cc1ccccc1N | 45.6 µM
* CCc1nc(N)nc(N)c1-c1ccc([N+](C)(C)C)cc1 | > 100 µM
* CC(C)=CCc1cc2c(cc1O)OC[C@H]1c3cc4c(cc3O[C@@H]21)OCO4 | > 100 µM
* CCC(=O)O[C@H]1CC[C@H]2[C@@H]3CCC4=C/C(=N/OC(=O)c5cccc6cc7ccccc7nc56)CC[C@]4(C)[C@H]3CC[C@]12C | > 100 µM
* CC(C)=CCc1cc(O)cc2c1OC(C=C(C)C)C1=C2C(=O)C2=C(C1=O)S(=O)(=O)CCN2 (stereo not given) | 5.37 µM
* O=C(Cn1c(-c2ccccc2)cc2ccccc21)N1CCCC1 | > 100 µM
* O=C(CC(C(=O)c1ccsc1)c1ccccc1)c1ccccc1 (stereo not given) | > 100 µM
* Oc1cn(-c2ccc(Cl)cc2)nc1-c1n[nH]c(=S)n1-c1ccccc1 | > 100 µM
* Cc1ccc(Nc2oc(-c3ccccc3)nc2[P+](c2ccccc2)(c2ccccc2)c2ccccc2)cc1 | 4.16 µM
* Cn1c(Nc2ccc(C(F)(F)F)cc2)nc2cc(Oc3ccnc(-c4ncc(C(F)(F)F)[nH]4)c3)ccc21 | 17.3 µM
* CCOC(=O)c1sc2c(c1OC(=O)c1ccc(OC)cc1)c(=O)n(-c1ccccc1)c(=S)n2-c1ccccc1 | > 100 µM
* CN(C)c1ncnc2c1ncn2CCn1cnc2c(N(C)C)ncnc21 | > 100 µM
* C[C@H]1CN[C@@H]2[C@@H](C)[C@H]3[C@@H](C[C@H]4[C@@H]5CC[C@H]6C[C@@H](N)CC[C@]6(C)[C@H]5CC[C@]34C)O[C@@]2(O)C1 | 16.9 µM
* CC1(C)N=C(N)N=C(N)N1c1ccc(CCCCc2ccc(Cl)c(S(=O)(=O)F)c2)c(Cl)c1 | 16.5 µM
* CN(C)c1ccc(N=Nc2ccccn2)c(O)c1 | > 100 µM
* COC(=O)NC(C(F)(F)F)(C(F)(F)F)P1(=O)OCCCO1 | > 100 µM

---

System: UACC-62 melanoma
Assay: NCI tumour cell line growth inhibition, 48 h
Where a SMILES comes first, the peptide text is derived from it. The star is where a group is joined. Boc = CC(C)(C)OC(=O)*
Response key: YES means TGI >= 30 µM; NO means TGI < 30 µM.

* CC(=O)OCC1OC(n2c(C)cc(C)c(C#N)c2=S)C(OC(C)=O)C(OC(C)=O)C1OC(C)=O (stereo unspecified) | YES
* CS(=O)(=O)Nc1cc(-c2ccc3ncnc(Nc4c(Cl)ccc5c4OCO5)c3c2)cnc1Cl | NO
* COc1ccc(-c2nnc(N3CCN(C(=O)CN4CCN(c5ccccc5)CC4)CC3)nc2-c2ccc(OC)cc2)cc1 | YES
* COc1cccc(C2c3cc4c(cc3OC(C)(N3CCCC3)C2C)OCO4)c1 (stereo unspecified) | NO
* Cc1cc2c(cc1C(=O)c1ccc(N)cc1)OCO2 | YES
* O=C1C=C(NCCOCCO)C(=O)c2c(O)ccc(O)c21 | NO
* Cc1c2cccc-2c(OCCO)cc2c3ccccc3n(C)c12 | NO
* CN1C(=O)C2CCCC(=O)N2c2cccnc21 (stereo unspecified) | YES
* CCOC(=O)c1nc2cc(F)c(N3CCOCC3)cc2[nH]c1=O | YES
* COCOC1C=CCCCC2=CC(C)=C(CC1)O2 (stereo unspecified) | YES
* NCC(=O)Nc1ccc(S(=O)(=O)O)c2cc(S(=O)(=O)O)cc(S(=O)(=O)O)c12 | YES
* O=c1c2ncn(C3CCCO3)c2n(-c2ccccc2)c(=S)n1-c1ccccc1 (stereo unspecified) | YES
* CCOC(=O)/C=C(\C(=O)OCC)n1ccc(=O)n(Cc2cn(CCCCOC(C)=O)nn2)c1=O | YES
* CCOC1c2cc(C(C)C)c(O)c(O)c2[C@@]23CCCC(C)(C)C2C1OC3=O (stereo partly specified) | YES
* Nc1n[nH]c(=O)c2c1c(I)cn2C1OC(CO)C(O)C1O (stereo unspecified) | NO
* O=C1c2cccc3cccc(c23)C(=O)N1CCCCCN1CCN(CCCCCOc2ccc(-c3nc4ccc(N5CCOCC5)cc4[nH]3)cc2)CC1 | YES
* CC(C)C(C/C=C1\CC(CO)(COC(=O)C(C)(C)C)OC1=O)C(C)C (stereo unspecified) | YES
* CN(C)CCC(=O)C(=Cc1ccc(O)cc1)C(=O)CCN(C)C | YES
* COc1cc(C2CC(c3cccc(Nc4ccncc4)c3)=NN2c2ccc(Cl)cc2)cc(OC)c1OC (stereo unspecified) | NO
* CCCC(=O)N1CCN(c2ccc3c(c2)OC(C)O3)CC1 (stereo unspecified) | YES
* CN(C)c1ncnc2c1ncn2CCn1cnc2c(N(C)C)ncnc21 | YES
* Cc1ccc(Nc2oc(-c3ccccc3)nc2[P+](c2ccccc2)(c2ccccc2)c2ccccc2)cc1 | NO
* COC(=O)c1ccc2c(c1)/C(=C\c1cc(Br)c(O)c(Br)c1)C(=O)N2 | NO
* CC(=O)N1CCC(=O)/C(=C/c2ccccc2)C1 | YES
* CN(C)C(=O)/C=C/c1c[nH]c(=O)[nH]c1=O | YES
* CS(=O)(=O)c1ccc(-c2cc(-c3ccc(S(C)(=O)=O)cc3)[n+](-c3cc(-c4ccccc4)c([O-])c(-c4ccccc4)c3)c(-c3ccc(S(C)(=O)=O)cc3)c2)cc1 | YES
* CN(C)CCNC(=O)c1cccc2c(Nc3ccc(S(=O)(=O)N=C(N)N)cc3)c3ccccc3nc12 | NO
* CC12CCC3c4ccc(O)cc4CCC3C1C/C(=N\O)C2O (stereo unspecified) | YES
* CN(CCN(C)C(=O)CCn1cc(F)c(=O)[nH]c1=O)C(=O)CCn1cc(F)c(=O)[nH]c1=O | YES
* COC(=O)c1ccc(-c2c(C#N)[n+](=O)c3cc(Cl)c(Cl)cc3n2[O-])cc1 | YES
* O=c1nc(N2CCNCC2)oc2cc(Cl)oc(=O)c12 | NO
* COC(=O)C(C)NC(=O)C(CCSC)NC(=O)C(Cc1ccccc1)NC(=O)OC(C)(C)C (stereo not drawn) (Boc-Phe-Met-Ala-OMe; configuration not given here) | YES
* CC(C)(C)OC/C=C(/CO)[C@@H]1C=C[C@H](O)C1 | YES
* COc1ccc(C2=C3SC=c4ccccc4=C3ON=C2c2ccccc2)cc1 | YES
* COC(=O)C1=C(C(=O)OC)C2=S(SC3=C2CCCC3)S1 (stereo unspecified) | YES
* C[Si](C)(C)/C(I)=C/CO | YES
* CCc1nc(N)nc(N)c1-c1ccc([N+](C)(C)C)cc1 | YES

---

Test system: MDA-N
Assay: NCI tumour cell line growth inhibition, 48 h
parameter: TGI

- Nc1ccccc1N=Cc1cc2cc([N+](=O)[O-])ccc2s1: > 100 µM
- [N-]=[N+]=NCc1nc(N)c2c3c(sc2n1)CCCC3: 13.9 µM
- CC(C)=CCC/C(C)=C/CC/C(C)=C/CC(CO)N(C)CC/C=C(\C)CCC=C(C)C (stereo unspecified): 12.4 µM
- Cc1cc(C(F)(F)F)cc(-n2nc(NS(=O)(=O)c3cc(C)c(Cl)cc3S)nc2N)n1: > 100 µM
- CN(C)CCCn1cnc2cc(Cl)c(Cl)cc21: > 100 µM
- COc1ccc(-c2cc3ccccc3oc2=O)cc1OC: > 100 µM

---

Test system: RPMI-8226 leukemia
Assay: NCI tumour cell line growth inhibition, 48 h
parameter: TGI

• CCOC(=O)NNC(=O)NCCCCNC(=O)NNC(=O)OCC = > 100 µM
• C=C1CC/C=C(\C)CCC[C@H](C)[C@@H](O)[C@@H]2OC(=O)C(=C)[C@@H]2C[C@H]1O = > 21.9 µM
• CC1=C(CO)C2=C(C)C3(CC3)[C@@](C)(O)C(=O)C2=C1 = > 81.6 µM
• CCOC(=O)/C=C(\C(=O)OCC)n1ccc(=O)n(Cc2cn(CCCCOC(C)=O)nn2)c1=O = > 36 µM
• C=CCC1(CN(C)C)CC/C(=C\c2ccc(Cl)cc2)C1=O (centres undefined) = 53.6 µM
• CCOC(=O)/C=C(/C(=O)OCC)n1cnc2c(=O)[nH]c(NC(C)=O)nc21 = > 100 µM
• Cn1c2ccccc2c(=O)c2cccc(C(=O)NC(CS)C(=O)O)c21 (centres undefined) = > 100 µM
• CCN(Cc1ccc(F)cc1)c1ccc(CO)c(Br)c1 = 22.1 µM
• CSc1nc(NC2OC(COC(C)=O)C(OC(C)=O)C(OC(C)=O)C2OC(C)=O)c(N=CC=Nc2c(NC3OC(COC(C)=O)C(OC(C)=O)C(OC(C)=O)C3OC(C)=O)nc(SC)n(C)c2=O)c(=O)n1C (centres undefined) = > 100 µM
